SYSTEM_TESTED: E3 ubiquitin-protein ligase UHRF1 (Homo sapiens)
TEST_NAME: blockers of UHRF1 binding to methyl-oligo – biochemical, TR-FRET, human UHRF1, counter-screen for MBD2 inhibitor project (AID 720530);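 also: UHRF1 SRA domain binding a labeled hemimethylated CpG hairpin DNA; 0% = vehicle only and 100% = reference inhibitor with vehicle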
PARTICULARS: UHRF1 binding to methylated oligonucleotide, at 4.4 µM, active compounds read high
The whole screen tested about 1,000 compounds, of which about 260 (26%) were called active. Only a sample is shown.
inhibition: recorded values
MEASURED_METRIC: inhibition (%)

INSERT INTO assay_data (compound, system_tested, measured_metric, val) VALUES
  ('COc1ccc(CNC(=O)c2c[nH]c3c(OC)cc(OC)cc3c2=O)cc1', 'E3 ubiquitin-protein ligase UHRF1 (Homo sapiens)', 'inhibition', 5.78),
  ('COC(=O)c1ccc(CSc2nncn2N)cc1', 'E3 ubiquitin-protein ligase UHRF1 (Homo sapiens)', 'inhibition', 9.29),
  ('CCOc1cc(-c2noc(CCCC(=O)NC3CCCCC3)n2)ccc1OC', 'E3 ubiquitin-protein ligase UHRF1 (Homo sapiens)', 'inhibition', 4.27),
  ('Cc1cccc(NC(=O)C[C@H]2CC[C@H]3[C@@H](COc4ccc(NC(=O)Nc5ccccc5)cc4C(=O)N3C)O2)c1', 'E3 ubiquitin-protein ligase UHRF1 (Homo sapiens)', 'inhibition', 0.48),
  ('CC(C)c1nc(CNC(=O)CC2C(=O)NCCN2Cc2cccc(F)c2F)cs1 (stereo not given)', 'E3 ubiquitin-protein ligase UHRF1 (Homo sapiens)', 'inhibition', 9.89),
  ('CCN(CC)CCOc1ccc2c(c1)C(=NNC(=O)c1ccccn1)c1cc(OCCN(CC)CC)ccc1-2', 'E3 ubiquitin-protein ligase UHRF1 (Homo sapiens)', 'inhibition', 108),
  ('COC(=O)c1cccc(NC(=O)c2cccc(N3C(=O)CCC3=O)c2)c1', 'E3 ubiquitin-protein ligase UHRF1 (Homo sapiens)', 'inhibition', 6.97),
  ('CN(C(=O)COC(=O)c1cc(-c2ccco2)nc2ccccc12)C1CCS(=O)(=O)C1 (stereo not given)', 'E3 ubiquitin-protein ligase UHRF1 (Homo sapiens)', 'inhibition', 35.3),
  ('CCOC(=O)c1sc(NC(=O)CCN2CCOCC2)c(C(=O)OCC)c1C', 'E3 ubiquitin-protein ligase UHRF1 (Homo sapiens)', 'inhibition', -14.4),
  ('COC(=O)[C@]12C[C@H](CC(=O)NCCC(C)C)C(=O)N(CCc3ccc(OC)c(OC)c3)C1=C[C@H](C(C)(C)C)O[C@@H]2C', 'E3 ubiquitin-protein ligase UHRF1 (Homo sapiens)', 'inhibition', 7.24);
